- Tested on: Ca2+ response induced by compound 4 in SH-SY5Y cells (RyRs)
- ASSAY_INFO: Role of RyRs in Ca2+ response induced by compound 4 (Ca2+-free medium)
- Type: cell-based, human
- CONDITION_PARAMETERS: Homo sapiens, SH-SY5Y; Ca2+-free medium; read-out: IC50 for inhibition of Ca2+ response induced by compound 4
pIC50: −log10 of the molar value.

>  <CHEMICAL_STRUCTURE>
CCN(CC)CCOC(=O)c1ccc(N)cc1

>  <TARGET>
Ca2+ response induced by compound 4 in SH-SY5Y cells (RyRs)

>  <pIC50>
4.21

$$$$
